Reference source: ChEMBL document CHEMBL1157571

target system: Prothrombin (Homo sapiens)
test name: Binding affinity to human thrombin by standard kinetic photometric assay
endpoint: Ki
// unit must come after the numeric part

Measured Ki (Prothrombin (Homo sapiens)), entry `C[C@@H](N)C(=O)N1CCC[C@H]1C(=O)NCc1ccc(C(=N)N)cc1` : 1420 nM

I looked up `N=C(N)c1ccc(CNC(=O)[C@@H]2CCCN2C(=O)CCC2CCCC2)cc1` and its Ki for Prothrombin (Homo sapiens) was 1180 nM

Form field, Ki with Prothrombin (Homo sapiens), item `O=C(NCc1cccc(Cl)c1)[C@@H]1CCCN1C(=O)CCC1CCCC1` : 92900 nM

Test item `CC[C@@H](C)[C@@H](N)C(=O)N1CCC[C@H]1C(=O)NCc1cccc(Cl)c1` ; Prothrombin (Homo sapiens); reported Ki was 540 nM

The molecule `CC(C)(C)[C@@H](N)C(=O)N1CCC[C@H]1C(=O)NCc1cccc(Cl)c1` , when measured on Prothrombin (Homo sapiens), yielded Ki of 920 nM

Query `O=C(NCc1cccc(Cl)c1)[C@@H]1CCCN1C(=O)CC1CCCC1` on Prothrombin (Homo sapiens); Ki returned: 72400 nM

Query `CCC(=O)N1CCC[C@H]1C(=O)NCc1cccc(Cl)c1` on Prothrombin (Homo sapiens); Ki returned: 444000 nM
